biological target: Aβ1-42 fibers (human); test: SPR
Measured Metric: pKd
# pKd: negative log10 of molar concentration; output just the value

Check out these entries, answers already filled in.
Binder: MS-R 7.11.H1 x 7.2.L1 IgG1 (antibody, V domains shown) VH: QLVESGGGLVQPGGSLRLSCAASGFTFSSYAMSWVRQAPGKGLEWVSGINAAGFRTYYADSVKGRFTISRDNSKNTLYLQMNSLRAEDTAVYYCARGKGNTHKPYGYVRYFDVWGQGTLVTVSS VL: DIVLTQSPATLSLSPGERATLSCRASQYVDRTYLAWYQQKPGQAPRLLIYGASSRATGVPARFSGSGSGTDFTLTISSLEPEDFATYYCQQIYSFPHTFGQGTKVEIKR
pKd: 9.17

Binder: MS-R 7.9.H7 IgG1 (antibody, V domains shown) VH: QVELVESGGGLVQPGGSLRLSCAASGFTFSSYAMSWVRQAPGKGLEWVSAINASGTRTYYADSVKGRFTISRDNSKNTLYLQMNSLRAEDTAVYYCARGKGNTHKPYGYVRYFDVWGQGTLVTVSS VL: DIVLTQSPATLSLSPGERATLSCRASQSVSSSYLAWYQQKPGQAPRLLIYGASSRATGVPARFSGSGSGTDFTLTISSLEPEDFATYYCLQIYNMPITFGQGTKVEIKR
pKd: 9.15

Exercise: Give the measured pKd of MS-R 7.9.H2 IgG1 (antibody, V domains shown) VH: QLVESGGGLVQPGGSLRLSCAASGFTFSSYAMSWVRQAPGKGLEWVSAINADGNRKYYADSVKGRFTISRDNSKNTLYLQMNSLRAEDTAVYYCARGKGNTHKPYGYVRYFDVWGQGTLVTVSS VL: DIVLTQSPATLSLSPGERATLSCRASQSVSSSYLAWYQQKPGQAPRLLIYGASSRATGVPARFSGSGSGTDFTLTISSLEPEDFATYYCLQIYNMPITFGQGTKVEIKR .
Key: 9.42
